- Test system: MS2 coat protein
- test_method_notes: apparent KD of MS2 coat protein; higher = weaker reporter binding
- condition_notes: Eterna round: R107; input ligand: theophylline 2 mM
measured_property: apparent KD of MS2 coat protein (nM)
Give just the number in nM; leave the unit off.

Recorded apparent KD of MS2 coat protein of UGGCAAGAGGGAAGGAGCGUCAGCUGAGUCACAUGAGGAUCACCCAUGUCGCACAUAGUGUGACAGGUAGGUCGCCCUCUACCCU [Rearian] , please.
217

Sample GCUACAUGAGGAUCACCCAUGUGUACUGAAGGAGCGGCGAAAACGCCAGGUAGGUCGCAGUAUGUGGCUCUGGGCACGAGAUGGC [#02 Same State - Arginine A] — what was its apparent KD of MS2 coat protein?
41.3

What value of measured apparent KD of MS2 coat protein is listed for UUGUUGUUUGGAAGGAGCGUGUAUGAUUUAGAACAUGAGGAUCACCCAUGUUGGAGGAUAGCACAGGUAGGUCGCCGGGUGGUGG [11.X] ?
21.4

Which apparent KD of MS2 coat protein is listed for GACGCAUGAGUUGUAAAAGCUCAUGGGUCGCGAGGACCGGUACGGCCGCCACUCGGCUGUACAUGAGGAUCACCCAUGUCAGGGU [#1 Same State - Tryptophan A Attempt #28 (HarryS)] ?
886

Look up apparent KD of MS2 coat protein: GGGAGGGAGGCGGCCGCCACUGAUUUUCAUAUAUAUAUAACAUGAGGAUCACCCAUGUAGAUAUACAGGACCGGGCCUUUUUUUU [aaaG]
22.8

Entry AAUGUAUGGCACAUGAGGAUCACCCAUGUGCGAGGACCGGUACGGCCGCCACUCGGUCCUGGGAUCUUACAACUAUACAUUAAUG [XTryp A #20] has what apparent KD of MS2 coat protein?
16.4

====

- Test system: K4 kissing-loop RNA reporter;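 further: bound reporter read as fluorescence of individual clusters on recovered sequencing chips by microscopy, with normalized cluster intensities fitted with a binding model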
- test_method_notes: apparent KD of K4 kissing-loop reporter; higher = weaker reporter binding
- condition_notes: Eterna round: R107; input ligand: arginine 13.2 mM
measured_property: apparent KD of K4 kissing-loop reporter (nM)
State the answer as a number, implicitly in nM.

Using the record for UAUGAAUGUGGAGGAUAUUGAUUGAAUCUUGGUCUGGAGUGAUGUUCCGGGAAGCCUUGGAUUCAUCGAGAAGGCCAUGGAUAGU [#03 K4 FMN B Same State] , report its apparent KD of K4 kissing-loop reporter.
111

Which measured apparent KD of K4 kissing-loop reporter value corresponds to UUGUGCAGCAAUCGAGUGAUGUUCGACGAUACCAGCCUCGAUAGAGGCCCUUGGCAGCGUAUCAUCACAUGCCAAGAGCUGCACU [#SwitchBubble 5] ?
362

Look at this sequence and give its reported apparent KD of K4 kissing-loop reporter. AGAGGAAAUAGAAGGAGCGGCGCCAGUGAUGUUGGAUGCCGCGGGUGAAUCAGGUCAUAGUGCCAGGUAGGUCGCUAUUUCAGCG [Larebeve]
112

====

- System: MS2 coat protein
- test_method_notes: apparent KD of MS2 coat protein; designed switch direction (-1 OFF switch, 1 ON switch): -1; higher = weaker reporter binding
- condition_notes: Eterna round: R95; input ligand: FMN 200 uM
measured_property: apparent KD of MS2 coat protein
The reply should read as a number followed by its unit.

Recorded apparent KD of MS2 coat protein of AGUACUAACACGAAAGUGUUAGUACAAUAAGCUUGUGAAACAUGAGGAUCACCCAUGUCCUCAUAAGCUCGUCUUGU [salish99_TOv2_r3_009] (puzzle: Sensor v3, turn-off variant 2) , please.
0.0152 µM

apparent KD of MS2 coat protein lookup needed for GCAAGUUUUUUGUUUUUUAACAUGAGGAUCACCCAUGUAUUUUUAUAGUAUGUGUGAAUAAGAUCUCGUGGUCUUAG [JR_SV3TOV1_Sub100] (puzzle: Sensor v3, turn-off variant 1) , thanks.
0.0733 µM

So what does the record say about apparent KD of MS2 coat protein for AAGAAACAUGAGGAUCACCCAUGUGAGGAUAUGAUGAAGAAAAGAAAAGAAAGAAGAUUCAGAAGGCACAAAGG [salish99-ex1_r3_055] (puzzle: Exclusion 1) ?
0.113 µM

Can you look up the measured apparent KD of MS2 coat protein of AGAUAGUUAGGAUAUACAUGAGGAUCACCCAUGUAGAAAAGUGGCUAAUGAGACUCCGGUAGAAGGAACAAAAU [Isanqurama] (puzzle: Exclusion 3) for me?
0.0417 µM

Entry under review: UUUUUCAAGCCAGAUCCUCACAUGAGGAUCACCCAUGUGCUCGUCUGUUUUCGCACUAUCACGUUUGUGAUAGUGCU [Level Boss var2-11] (puzzle: Sensor v3, turn-off variant 1) . Reported apparent KD of MS2 coat protein?
0.297 µM

Name the recorded apparent KD of MS2 coat protein for AGACAGUCAGGAUAUACAUGAGGAUCACCCAUGUUAAGAAAAGAAAGGGCAGGAAGAGGUAGAAGGGACAAGAA [JR_Exclu3_Sub032] (puzzle: Exclusion 3) .
0.0288 µM
